- System: MCF7/AR cells
- method: MTT cytotoxicity assay, siRNA-transfected MCF7/AR cells
- Format: cell-based, human
- testConditions: Homo sapiens, MCF7, read-out: IC50 Results (MTT), MCF7/AR cells transfected with P16 siRNA (p16 siRNA I)
What pIC50 was measured for each of the following?
API: returns pIC50 as number; meaning -log10 of concentration in mol/L.

## Task Value lookup for pIC50; key = O=C(O)CCCc1ccc(N(CCCl)CCCl)cc1
## Result 4.05

## Task Need pIC50 of S=P(N1CC1)(N1CC1)N1CC1 , thanks.
## Result 3.98

---

- Test system: HeLa cells
- method: cells
- Format: cell-based
- testConditions: Homo sapiens, HeLa, HeLa cells transfected with P16 siRNA (p16 siRNA I); read-out: IC50 Results (MTT)
Please provide measured IC50 for the entries that follow.
Provide only the numeric value, understood in nM.

## Task Look at this molecule and give its reported IC50. COc1cccc2c1C(=O)c1c(O)c3c(c(O)c1C2=O)C[C@@](O)(C(=O)CO)C[C@@H]3O[C@H]1C[C@H](N)[C@H](O)[C@H](C)O1
## Result 70.4

## Task Quick one: IC50 for O=C1c2c(O)ccc(O)c2C(=O)c2c(NCCNCCO)ccc(NCCNCCO)c21 ?
## Result 5410

Data origin: patent US20060188507A1
